Biological target: Tyrosine-protein kinase BTK (Homo sapiens, UniProt Q06187)
Sequence (Q06187 whole entry): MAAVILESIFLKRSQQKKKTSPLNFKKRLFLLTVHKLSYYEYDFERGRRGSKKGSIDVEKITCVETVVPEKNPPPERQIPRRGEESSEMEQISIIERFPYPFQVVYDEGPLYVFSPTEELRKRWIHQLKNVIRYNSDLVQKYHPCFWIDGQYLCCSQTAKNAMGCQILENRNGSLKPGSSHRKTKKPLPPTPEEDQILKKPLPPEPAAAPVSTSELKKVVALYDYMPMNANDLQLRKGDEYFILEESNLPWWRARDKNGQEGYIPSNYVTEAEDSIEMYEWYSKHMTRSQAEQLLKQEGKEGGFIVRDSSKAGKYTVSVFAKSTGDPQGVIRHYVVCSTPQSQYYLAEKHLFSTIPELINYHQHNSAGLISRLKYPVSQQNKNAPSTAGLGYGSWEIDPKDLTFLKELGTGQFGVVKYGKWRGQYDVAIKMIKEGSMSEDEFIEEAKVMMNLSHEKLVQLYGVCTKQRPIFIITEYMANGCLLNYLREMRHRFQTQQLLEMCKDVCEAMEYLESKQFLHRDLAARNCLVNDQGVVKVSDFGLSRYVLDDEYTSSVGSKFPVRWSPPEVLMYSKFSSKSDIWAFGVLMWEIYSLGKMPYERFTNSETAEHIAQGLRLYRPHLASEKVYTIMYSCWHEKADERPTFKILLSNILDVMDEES
Readout name: IC50 (nM)
Give the number; nM is assumed, so skip it.

Query :: # return recorded IC50 for input `Cc1ccc(NC(=O)c2ccc(-c3cccc(C(F)(F)F)c3)cc2)cc1C(=O)Nc1cnc(Nc2cccc(N)c2)nc1`
Result :: 2560

Query :: # return recorded IC50 for input `Cc1ccc(NC(=O)c2ccc(Oc3ccccc3)cc2)cc1C(=O)Nc1cnc(Nc2cccc(N)c2)nc1`
Result :: 991

====

Biological target: Tyrosine-protein kinase SYK (Homo sapiens)
Test: Inhibition of SYK phosphorylation in human Ramos cells incubated for 1 hr
Readout name: pIC50
Lab note: report pIC50 as minus log10 of the concentration in molar units, number only.

Query :: # return recorded pIC50 for input `Cc1ccc(NC(=O)c2ccc(-c3cccc(C(F)(F)F)c3)cc2)cc1C(=O)Nc1cnc(Nc2cccc(N)c2)nc1`
Result :: 5.54

Query :: # return recorded pIC50 for input `Cc1ccc(NC(=O)c2ccc(Oc3ccccc3)cc2)cc1C(=O)Nc1cnc(Nc2cccc(N)c2)nc1`
Result :: 5.56

Value source: ChEMBL document CHEMBL5370530
